Target: EP4 (Homo sapiens, UniProt P35408)
Construct: also expresses a promiscuous G protein and a clytin variant
Sequence (P35408 whole entry): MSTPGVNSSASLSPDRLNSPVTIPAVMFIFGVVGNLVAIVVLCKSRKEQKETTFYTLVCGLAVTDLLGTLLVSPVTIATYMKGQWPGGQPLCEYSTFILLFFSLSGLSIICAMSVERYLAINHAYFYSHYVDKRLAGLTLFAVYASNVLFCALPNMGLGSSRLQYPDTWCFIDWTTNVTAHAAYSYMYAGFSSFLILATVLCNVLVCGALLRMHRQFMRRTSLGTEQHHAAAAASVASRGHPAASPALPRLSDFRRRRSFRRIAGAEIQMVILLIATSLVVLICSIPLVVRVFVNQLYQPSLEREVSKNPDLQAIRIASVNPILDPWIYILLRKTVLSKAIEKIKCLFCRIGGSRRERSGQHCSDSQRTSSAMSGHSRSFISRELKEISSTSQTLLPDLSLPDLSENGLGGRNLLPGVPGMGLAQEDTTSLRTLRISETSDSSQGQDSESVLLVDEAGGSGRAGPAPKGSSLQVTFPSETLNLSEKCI
Experiment: EP4 Ca2+-flux assay (functional calcium flux assay, stably transfected HEK293 cells)
Details: HEK293 cells stably transfected with EP4; ligand PGE2 10 nM; luminescence readout
IC50 vs 2 nM: less than gives Criterion met; not less than gives Criterion not met.

- molecule: "O=C(O)CC12CCC(NC(=O)c3cccc4ccn(Cc5ccc(S(F)(F)(F)(F)F)cc5)c34)(C1)C2"
  assigned-class: "Criterion met"
- molecule: "O=C(O)CC12CC(NC(=O)c3cccc4ccn(Cc5ccc(C(F)(F)F)cc5)c34)(C1)C2"
  assigned-class: "Criterion met"
- molecule: "O=C(O)CC12CCC(NC(=O)c3ccc(F)c4ccn(Cc5ccc(C(F)(F)F)cc5)c34)(C1)C2"
  assigned-class: "Criterion met"
- molecule: "O=C(NC12CC(Cc3nnn[nH]3)(C1)C2)c1cccc2ccn(Cc3ccc(C(F)(F)F)cc3)c12"
  assigned-class: "Criterion met"
- molecule: "N#Cc1ccc(Cn2ccc3cccc(C(=O)NC4CC5(C4)CC(C(=O)O)C5)c32)cc1 (racemic)"
  assigned-class: "Criterion not met"
- molecule: "O=C(CC12CC(NC(=O)c3cccc4ccn(Cc5ccc(C(F)(F)F)cc5)c34)(C1)C2)NS(=O)(=O)c1ccccc1"
  assigned-class: "Criterion not met"
- molecule: "O=C(O)CC12CCC(NC(=O)c3cccc4ccn(Cc5ccc(C(F)F)cc5)c34)(C1)C2"
  assigned-class: "Criterion not met"
